Attribute: melting point
Only the number, expressed in °C, is required.

INSERT INTO assay_data (molecule, quantity, obs_value) VALUES
  ('CCOC(=O)CCCCCCCCC(=O)OCC', 'melting point', 5),
  ('Cc1c(C)c2ccccc2c2ccccc12', 'melting point', 144),
  ('[Br-].[Br-].c1cc[n+]2c(c1)-c1cccc[n+]1CC2', 'melting point', 337),
  ('CC(Oc1c(Cl)cccc1Cl)C1=NCCN1 (stereo unspecified)', 'melting point', 127),
  ('CCOc1cc(OP(=S)(OC)OC)nc(CC)n1', 'melting point', -3.35);

Requested field: melting point. Item: `CCCCCCCC(=O)OCCCC`
-42.9

Requested field: melting point. Item: `CCOC(=O)Oc1c(OC)cc(C(=O)O[C@@H]2C[C@@H]3CN4CCc5c([nH]c6cc(OC)ccc56)[C@H]4C[C@@H]3[C@H](C(=O)OC)[C@H]2OC)cc1OC`
177

Requested field: melting point. Item: CC1COC(Cn2cncn2)(c2ccc(Oc3ccc(Cl)cc3)cc2Cl)O1 (stereo unspecified)
76

Requested field: melting point. Item: `CCCc1cccc(CCC)c1O`
27

Requested field: melting point. Item: `Nc1ccccc1-c1ccccc1N`
81

Requested field: melting point. Item: `CCCCCCCC(=O)CC`
2.5

Requested field: melting point. Item: `O=C1OC(=O)c2c(F)c(F)c(F)c(F)c21`
95
